experiment: qHTS assay to identify small molecule antagonists of the androgen receptor (AR) signaling pathway - cell viability counter screen (AID 743033; note: nearly all actives have a fitted effect of over 45% in size)
study conditions: AR-bla HEK293 viability, CellTiter-Glo luminescence, 16 h; series mostly up to 58.5 µM
Results filed as inconclusive are left out. Calls of active or inactive are those of the source. Calls come from the whole dose curve; as a rule, active = well fitted cell-killing curve with a large enough effect in the repeat runs; inconclusive = weak or mixed curves; inactive = no such curve, though single readings can be large or run the other way.
Field 'call' accepts T (active), F (inactive)

{"molecule": "CC(CN(C)C)CN1c2ccccc2CCc2ccccc21 (centres undefined)", "classification": "F"}

What is the recorded call for this molecule in the test? `C=C(c1ccc(C(=O)O)cc1)c1cc2c(cc1C)C(C)(C)CCC2(C)C` F

Here is the next molecule: `NC(=O)c1nc(-c2cccc(-c3cc(F)ccc3OCC(F)(F)C(F)(F)F)c2)n[nH]1` T

---

# activity, negative = inhibition per entry
experiment: qHTS assay to identify small molecule antagonists of the estrogen related receptor (ERR) signaling pathway from Tox21 library (AID 1224848); note: % is set by controls: 0 for no effect and ±100 for the full control effect; nearly all actives have a fitted effect of over 50% in size
study conditions: ERR reporter cell line, luciferase antagonist mode, 18 h; series mostly up to 92.4 µM
Records with an inconclusive call do not appear. The source made the active and inactive calls. Calls come from the whole dose curve; as a rule, active = well fitted inhibition curve with a large enough effect in the repeat runs; inconclusive = weak or mixed curves; inactive = no such curve, though single readings can be large or run the other way.

{"input smiles": "CCN1CCN(c2cc(-c3ccc(F)cc3)c3c(n2)CCCCCC3)CC1", "quantity name": "activity, negative = inhibition", "result value": "-10.2% [at 19 µM] (inactive)"}
{"input smiles": "CCCCCCCCCCCCCCCCCO", "quantity name": "activity, negative = inhibition", "result value": "-9.79% [at 19 µM] (inactive)"}
{"input smiles": "O=S(=O)(O)c1cc(S(=O)(=O)O)c2ccc3c(S(=O)(=O)O)cc(S(=O)(=O)O)c4ccc1c2c43", "quantity name": "activity, negative = inhibition", "result value": "17.9% [at 19 µM] (inactive)"}

Now consider a different molecule.
Sample `C=C/C=C/C=C/CCCCC` — what was its activity, negative = inhibition? 3.04% [at 19 µM] (inactive)

---

experiment: qHTS assay to identify small molecule antagonists of the estrogen related receptor (ERR) signaling pathway from Tox21 library - cell viability counter screen (AID 1224834); note: nearly all actives have a fitted effect of over 30% in size
study conditions: ERR reporter cells viability, CellTiter-Fluor, 17.5 h; series mostly up to 92.4 µM
Inconclusive results are not listed. Active and inactive are the calls of the source. The call rests on the fitted dose curve; in most records, active means well fitted cell-killing curve with a large enough effect in the repeat runs; inconclusive means weak or mixed curves; inactive means flat fitted curve, though single readings scatter.
// one of active, inactive, no free text

Solved cases (2 shown):
{"molecule": "CCCCCCCC(=O)OCC", "classification": "inactive"}
{"molecule": "O=C(O)CCCCCCC(=O)O", "classification": "inactive"}

So what was the verdict on `O=Nc1ccc(NO)cc1` in this test? inactive

Input `COc1ccc(-n2nc(CCC(=O)N(C)O)cc2-c2ccc(Cl)cc2)cc1` active

---

experiment: qHTS assay to identify small molecule antagonists of the farnesoid-X-receptor (FXR) signaling pathway - cell viability counter screen (AID 743221); note: nearly all actives have a fitted effect of over 50% in size
study conditions: FXR-bla HEK293T viability, CellTiter-Glo luminescence, 16 h; series mostly up to 62.6 µM
Results filed as inconclusive are left out. Activity calls are given as the source filed them. Calls follow the shape of the dose curve; as a rule, active = well fitted cell-killing curve with a large enough effect in the repeat runs (not every such curve was filed as active); inconclusive = weak or mixed curves, or effect the other way; inactive = no such curve, though single readings can be large or run the other way.
Valid outcomes are listed here; reply with one: 1 (active), -1 (inactive)

Completed entries (count: 5):
{"compound": "Cc1c(C(=O)O)cccc1[N+](=O)[O-]", "classification": -1}
{"compound": "C=C(c1ccc(C(=O)O)cc1)c1cc2c(cc1C)C(C)(C)CCC2(C)C", "classification": -1}
{"compound": "C[C@@]12C(=O)OC(=O)[C@]1(C)C1CCC2O1", "classification": 1}
{"compound": "C/C=C/C(=O)Oc1c(CCCCCC(C)C)cc([N+](=O)[O-])cc1[N+](=O)[O-]", "classification": 1}
{"compound": "COC(=O)CC(C)CCC=C(C)C (configuration not stated)", "classification": -1}

Field: outcome | Entry: `CN(C)c1ccc(N=NS(=O)(=O)O)cc1` -1

Also need `COC(=O)NCCC[Si](OC)(OC)OC` , thanks. -1

Would you kindly repeat that for `O=Nc1ccc(NO)cc1` ? -1

Can you handle `Nc1ncnc2c1ncn2[C@@H]1O[C@H](COP(=O)(O)O)[C@@H](O)[C@H]1O` next? 1

Another compound to look at: `C=CC(=C)CCC=C(C)C` -1

Also, `O=C(Nc1ccc(Cl)c(Cl)c1)c1cc(Cl)cc(Cl)c1O` please. 1

Another compound to check: `COc1cc(C(=O)NS(=O)(=O)c2ccccc2C)ccc1Cc1cn(C)c2ccc(NC(=O)OC3CCCC3)cc12` -1
